Where these numbers come from: BindingDB's records for doi:10.1016/s0960-894x(98)00213-3

Measurement description: In vitro inhibition of pig liver squalene epoxidase in HepG2 cells
pIC50: −log10 of the molar value.
Property measured: pIC50

Structure string: CCN(C/C=C/C#CC(C)(C)C)Cc1cccc(OCCN(C)S(=O)(=O)c2cccs2)c1
Property measured: pIC50
Assay result: 7.30

* * *

Measurement description: In vitro inhibition of dog liver squalene epoxidase in HepG2 cells
pIC50: −log10 of the molar value.
Property measured: pIC50

Structure string: CCN(C/C=C/C#CC(C)(C)C)Cc1cccc(OCCN(C)S(=O)(=O)c2cccs2)c1
Assay result: 7.10
